Tested on: COLO 205 colon
test_method_notes: NCI tumour cell line growth inhibition, 48 h; in the data active means GI50 below about 0.43 µM; inactive means the rest
Outcomes: yes (active), no (inactive)

[[record]]
compound = "CCCCCCCCCCCCNC(=O)N[C@H](C(=O)N[C@H]1/C=C/OCCNC(=O)/C=C/[C@H](C(C)C)NC1=O)C(C)C"
category = "no"

[[record]]
compound = "COc1ccc2c(c1)OCC1c3cc(OC)ccc3OC21 (centres undefined)"
category = "no"

[[record]]
compound = "CC(C)CC(=O)O[C@H]1C(=O)O[C@@H]2C[C@H]3[C@H](C)C(=O)C(O[C@@H]4O[C@H](CO)[C@@H](O)[C@H](O)[C@H]4O)=C[C@]3(C)[C@H]3[C@@H](O)[C@H](O)[C@]4(C(=O)O)OC[C@]32[C@@H]14"
category = "no"

[[record]]
compound = "CCOc1ccc(-c2nc3ccc(-c4nc5ccc(N6CCN(C)CC6)cc5[nH]4)cc3[nH]2)cc1OCC"
category = "yes"


----------
Test system: HT29 colon
test_method_notes: NCI tumour cell line growth inhibition, 48 h; in the data active = GI50 below about 0.43 µM; inactive = the rest
Outcomes: True for active, False for inactive

[[record]]
compound = "NC1=Nc2cc(OCCCCN3Cc4ccccc4C3)c(OCC3CC3)cc2C12CCCC2"
category = "False"

[[record]]
compound = "CN(C)c1ccc(-c2cc(-c3cccc(NS(C)(=O)=O)c3)nc(N)c2C#N)cc1"
category = "True"

[[record]]
compound = "Nc1ncnc2c1ncn2C1SC(CO)C(O)C1O (stereo not drawn)"
category = "False"

[[record]]
compound = "COC(=O)[C@@H](C)C[C@H](Cc1ccccc1)NC(=O)c1nc([C@@H](C[C@H](C(C)C)N(C)C(=O)[C@@H](NC(=O)[C@H]2CC(=O)CCN2C)C(C)C)OC(C)=O)sc1C(C)C"
category = "True"

[[record]]
compound = "CCn1nc(C#Cc2c(C)ccc3c(Nc4ccc(Cl)cc4)nccc23)c2c(N)ncnc21"
category = "False"

[[record]]
compound = "CCC[CH2][Sn]1([CH2]CCC)[O]C(=O)c2cccnc2[S]1"
category = "False"

[[record]]
compound = "COc1cc2nc(NC3CCC3)nc(NC3CCN(C(C)C)CC3)c2cc1OC"
category = "False"

[[record]]
compound = "Nc1nc(-c2ccccn2)c(-c2ccc3ncccc3n2)s1"
category = "False"

[[record]]
compound = "CC(C)OC(=O)OCOP(=O)(OCOC(=O)OC(C)C)C1CCCN(O)C1=O (stereo not drawn)"
category = "False"

[[record]]
compound = "Cc1ccc(CNc2ccc(Cl)cc2NCc2ccc(C)c(O)c2)cc1O"
category = "False"

[[record]]
compound = "O=C(c1ccco1)c1c(C(F)(F)F)n([O-])c2cc(Cl)c(Cl)cc2[n+]1=O"
category = "False"

[[record]]
compound = "CC(=O)[O-].O=C([CH-]C(=O)c1ccccc1)c1ccccc1.O=C([CH-]C(=O)c1ccccc1)c1ccccc1.[Dy+3]"
category = "False"

[[record]]
compound = "Nc1nc(N)c2nc(CNc3ccc(C(=O)NC(CCC(=O)O)C(=O)O)cc3)cnc2n1 (stereo not drawn)"
category = "True"


----------
Test system: U251 CNS
test_method_notes: NCI tumour cell line growth inhibition, 48 h
Each entry below lists one item and its recorded TGI value.
readout_type: TGI

[[record]]
compound = "C/C(=C/C(=O)N(C)c1ccccc1Cl)O[Si](C(C)C)(C(C)C)C(C)C"
readout_type = "TGI"
endpoint_result = "38.7 µM"

[[record]]
compound = "Cc1cc(Br)ccc1N=NC1C(=O)ON=C1c1ccccc1 (stereo not given)"
readout_type = "TGI"
endpoint_result = "> 100 µM"

[[record]]
compound = "CCOC(=O)c1nc2ccccc2nc1Oc1ccc(F)cc1"
readout_type = "TGI"
endpoint_result = "> 100 µM"

[[record]]
compound = "Cc1c(Cl)ccc2[s+]snc12"
readout_type = "TGI"
endpoint_result = "70.2 µM"

[[record]]
compound = "COc1ccc2c(c1)SC1=Nc3sc4cc(OC)ccc4[n+]3CN12"
readout_type = "TGI"
endpoint_result = "63.6 µM"

[[record]]
compound = "COc1cc2nc(NC3CCC3)nc(NC3CCN(C(C)C)CC3)c2cc1OC"
readout_type = "TGI"
endpoint_result = "4.52 µM"

[[record]]
compound = "CC1SC(c2ccc(OCc3ccccc3)cc2)N(NC(=O)C(O)(c2ccccc2)c2ccccc2)C1=O (stereo not given)"
readout_type = "TGI"
endpoint_result = "15.3 µM"

[[record]]
compound = "C[C@@H](NC(=O)Nc1cccc(C(=O)Nc2cc(C(C)(C)C)ccc2C(=O)O)n1)c1ccccc1"
readout_type = "TGI"
endpoint_result = "37.8 µM"

[[record]]
compound = "c1c[nH]c(CN2CCN(Cc3ncc[nH]3)CC2)n1"
readout_type = "TGI"
endpoint_result = "> 100 µM"

[[record]]
compound = "COc1ccc(CCN2C(=O)C(=O)C(C(=O)c3ccccc3)C2c2ccccc2)cc1OC (stereo not given)"
readout_type = "TGI"
endpoint_result = "> 100 µM"

[[record]]
compound = "CCOC(=O)c1cn2c(n1)sc1cc([N+](=O)[O-])ccc12"
readout_type = "TGI"
endpoint_result = "> 100 µM"

[[record]]
compound = "CC(C)c1cc(C(C)C)c(S(=O)(=O)N/N=C2\\CC3CCC2(C)C3(C)C)c(C(C)C)c1 (stereo not given)"
readout_type = "TGI"
endpoint_result = "> 100 µM"

[[record]]
compound = "CC(=O)OC1=C(c2ccccc2)S(=O)(=O)c2ccccc21"
readout_type = "TGI"
endpoint_result = "> 100 µM"

[[record]]
compound = "COc1cc(C(=O)N[C@@H]2CCCN(C)C2)ccc1Nc1ncc2c(n1)N(C1CCCC1)CC(C)(C)C(=O)N2C"
readout_type = "TGI"
endpoint_result = "5.48 µM"

[[record]]
compound = "C/C(=C\\COP(=O)(O)CP(=O)(O)O)CC/C=C(\\C)CNc1ccccc1"
readout_type = "TGI"
endpoint_result = "> 100 µM"

[[record]]
compound = "CCc1cccc(CC)c1NC1=CC(=O)C(=O)c2ccccc21"
readout_type = "TGI"
endpoint_result = "36.6 µM"

[[record]]
compound = "CC(C(=O)NCNC(=O)c1ccccc1)C(=O)NCc1ccccc1 (stereo not given)"
readout_type = "TGI"
endpoint_result = "> 100 µM"

[[record]]
compound = "CC12CCC(C(=Nc3ccc([N+](=O)[O-])cc3)C1=O)C2(C)C (stereo not given)"
readout_type = "TGI"
endpoint_result = "97.6 µM"

[[record]]
compound = "O=[N+]([O-])C1=Cc2c(O)ccc(O)c2C2c3ccccc3NC12 (stereo not given)"
readout_type = "TGI"
endpoint_result = "29.4 µM"

[[record]]
compound = "C=C(CN1CCc2ccccc2C1)c1ccc(C(=O)Nc2cccc(N)c2)cc1"
readout_type = "TGI"
endpoint_result = "57.4 µM"

[[record]]
compound = "CC(=O)OCC1OC(Sc2nc(-c3ccccc3)c(C#N)c(=O)n2C2OC(COC(C)=O)C(OC(C)=O)C(OC(C)=O)C2OC(C)=O)C(OC(C)=O)C(OC(C)=O)C1OC(C)=O (stereo not given)"
readout_type = "TGI"
endpoint_result = "> 100 µM"

[[record]]
compound = "C#CC[C@]12CC(=O)CC[C@H]1CC1(C2)OCCO1"
readout_type = "TGI"
endpoint_result = "> 100 µM"

[[record]]
compound = "NC(C(=O)O)C(O)c1cnc[nH]1 (stereo not given)"
readout_type = "TGI"
endpoint_result = "> 100 µM"

[[record]]
compound = "O[C@@H]1CCCCN1Cc1cc2cc3c(cc2c2cc(OCc4ccccc4)ccc12)OCO3"
readout_type = "TGI"
endpoint_result = "2.95 µM"

[[record]]
compound = "Nc1cc2c(C3OC(CO)C(O)C3O)[nH]nc2c(=S)[nH]1 (stereo not given)"
readout_type = "TGI"
endpoint_result = "> 100 µM"

[[record]]
compound = "CC(=O)NNc1nc(C)c(C(=O)NNC(=O)C(=O)Nc2ccc(C)cc2[N+](=O)[O-])s1"
readout_type = "TGI"
endpoint_result = "> 100 µM"

[[record]]
compound = "CC1=C(C(N)=O)C(c2ccncc2)C(C#N)C(=O)N1 (stereo not given)"
readout_type = "TGI"
endpoint_result = "> 100 µM"

[[record]]
compound = "Cc1nnc(NS(=O)(=O)c2ccc(N=Nc3c(O)c(C(=O)O)cc4ccccc34)cc2)s1"
readout_type = "TGI"
endpoint_result = "> 100 µM"

[[record]]
compound = "CS(=O)(=O)Sc1ccc(Cl)cc1"
readout_type = "TGI"
endpoint_result = "11.5 µM"

[[record]]
compound = "BrC(/C=N/Nc1nnc(-c2ccccc2)c(-c2ccccc2)n1)C(Br)c1ccccc1 (stereo not given)"
readout_type = "TGI"
endpoint_result = "> 100 µM"

[[record]]
compound = "NCCCc1nonc1C(=O)O"
readout_type = "TGI"
endpoint_result = "> 100 µM"

[[record]]
compound = "COC(=O)C(Cc1ccc2c(c1)OCO2)(NC(=O)c1ccccc1)P(=O)(OC)OC (stereo not given)"
readout_type = "TGI"
endpoint_result = "> 100 µM"

[[record]]
compound = "COC(=O)[C@@H](C)C[C@H](Cc1ccccc1)NC(=O)c1nc([C@@H](C[C@H](C(C)C)N(C)C(=O)[C@@H](NC(=O)[C@H]2CC(=O)CCN2C)C(C)C)OC(C)=O)sc1C(C)C"
readout_type = "TGI"
endpoint_result = "> 10.5 µM"

[[record]]
compound = "COc1cc2c(cc1O)CCN[C@@]21CS[C@H]2c3c(OC(C)=O)c(C)c4c(c3C(COC1=O)N1C2C2NC(Cc3cc(C)c(OC)c(O)c32)[C@@H]1C#N)OCO4 (stereo not given in full)"
readout_type = "TGI"
endpoint_result = "0.444 µM"

[[record]]
compound = "COc1ccc(CC(COS(=O)(=O)c2ccc(C)cc2)NS(=O)(=O)c2ccc(C)cc2)cc1 (stereo not given)"
readout_type = "TGI"
endpoint_result = "26.2 µM"

[[record]]
compound = "CCCCCCCCCCCCCCCCCCCCCCC(=O)N[C@H]1CCc2cc(OC)c(OC)c(OC)c2-c2ccc(SC)c(=O)cc21"
readout_type = "TGI"
endpoint_result = "53.2 µM"

[[record]]
compound = "N#CCC1CCN(c2nc(Nc3ccc(N4CCC(O)CC4)cc3)c3c(=O)[nH]ncc3n2)CC1"
readout_type = "TGI"
endpoint_result = "> 100 µM"

[[record]]
compound = "CCOc1cc(NC(C)=O)ccc1C(=O)NN1C(=O)/C(=C/c2ccc(Cl)cc2)N=C1c1ccccc1"
readout_type = "TGI"
endpoint_result = "> 100 µM"

[[record]]
compound = "O=C(O)OC12CCCCCC1C(=O)C1CCCCC12 (stereo not given)"
readout_type = "TGI"
endpoint_result = "> 100 µM"

[[record]]
compound = "COc1ccc(N(c2ccc(C#N)cc2)c2ccc(C#N)cc2)cc1"
readout_type = "TGI"
endpoint_result = "> 100 µM"


Provenance of the data: PubChem BioAssay (NCI)
